The measurements presented in this section are drawn from patent US12037324B2.

Catalogue of compounds with associated IP-1 Ymax (%)
# target-of-assay: AGTR1 (Homo sapiens, UniProt P30556)
# Construct: host or cells: Pathunter CHO-K1 AGTR1 β-arrestin cell line (CHO-K1)
# assay-explanation: DiscoveRx IP1 accumulation assay (HTRF), agonist mode, Pathunter CHO-K1 AGTR1 β-arrestin cell line
# Format: cell-based
Numbers only here, please. The scale is %.

{"columns": ["compound", "reading"],
 "data": [
  ["CCc1nc2c(C)cc(C)nc2n1Cc1ccc(-c2cc(-c3cnn(C)c3)ccc2-c2nn[nH]n2)cc1 [Example 21]", 6.9],
  ["CCC1=NC2(CCOC2)C(=O)N1Cc1ccc(-c2cc(-c3cccc(C)c3)ccc2-c2nnn[nH]2)cc1 (single isomer, unassigned) [Example 169]", 14.5],
  ["CCc1nc2c(C)cc(C)nc2n1Cc1ccc(-c2cc(Nc3ccccc3)ccc2-c2nn[nH]n2)cc1 [Example 93]", 5.4],
  ["CCc1nc2c(C)cc(C)nc2n1Cc1ccc(-c2cc(-c3ccc(N(C)C)cc3)ccc2-c2nn[nH]n2)cc1 [Example 15]", 2.4],
  ["CCc1nc2c(C)cc(C)nc2n1Cc1ccc(-c2cc(Oc3cc(F)ccn3)ccc2-c2nn[nH]n2)cc1 [Example 254]", 30.0],
  ["CCc1nc2c(C)cc(C)nc2n1Cc1ccc(-c2cc(C3CCCCC3)ccc2-c2nn[nH]n2)cc1 [Example 71]", 11.8],
  ["CCc1nc2c(C)cc(C)nc2n1Cc1ccc(-c2cc(C3CCCO3)ccc2-c2nn[nH]n2)cc1 (single isomer, unassigned) [Example 73]", 11.6],
  ["CCc1nc2c(C)cc(C)nc2n1Cc1ccc(-c2cc(-c3cccc(C)c3)ccc2C(=O)O)cn1 [Example 195]", 5.3],
  ["CCCCn1cc(-c2ccc(-c3nnn[nH]3)c(-c3ccc(Cn4c(CC)nc5c(C)cc(C)nc54)cc3)c2)nn1 [Example 241]", 12.8],
  ["CCc1nc2c(C)cc(C)nc2n1Cc1ccc(-c2cc(-c3cccnc3OC)ccc2-c2nn[nH]n2)cc1 [Example 24]", 14.5]
]}

What value of measured IP-1 Ymax (%) is listed for CCc1nc2c(C)cc(C)nc2n1Cc1ccc(-c2cc(Oc3cncc(C)c3)ccc2-c2nn[nH]n2)cc1 [Example 260] ? 18.5

Another compound to look at: CCc1nc2c(C)cc(C)nc2n1Cc1ccc(-c2cc(-c3cccc(C)c3)ccc2-c2nn[nH]n2)cc1 [Example 8] 6.9

Another compound to look at: CCc1nc2c(C)cc(C)nc2n1Cc1ccc(-c2cc(-c3ccccn3)ccc2-c2nn[nH]n2)cc1 [Example 30] 12.3

Another compound to look at: CCc1nc2c(C)cc(C)nc2n1Cc1ccc(-c2cc(Oc3nccs3)ccc2-c2nn[nH]n2)cc1 [Example 252] 8.8

Another compound to look at: CCc1nc2c(C)cc(C)nc2n1Cc1ccc(-c2cc(-c3ccc(CO)cc3)ccc2C(=O)O)cc1 [Example 183] 14.1

---

# target-of-assay: AGTR1 (Homo sapiens)
# Construct: host or cells: Pathunter CHO-K1 AGTR1 β-arrestin cell line (CHO-K1)
# assay-explanation: DiscoveRx IP1 accumulation assay (HTRF), agonist mode, Pathunter CHO-K1 AGTR1 β-arrestin cell line
# Format: cell-based
# assay-conditions: read-out: IP-1 EC50
Catalogue of molecules with associated EC50
Numbers only here, please. The scale is nM.

Guide cases for EC50, answers given:
{"columns": ["molecule", "target-of-assay", "reading"],
 "data": [
  ["CCc1nc2c(C)cc(C)nc2n1Cc1ccc(-c2cc(-c3cc(F)cc(F)c3)ccc2-c2nn[nH]n2)cc1 [Example 53]", "AGTR1 (Homo sapiens)", 7.9],
  ["CCc1nc2c(C)cc(C)nc2n1Cc1ccc(-c2cc(Oc3cc(Cl)ccn3)ccc2-c2nn[nH]n2)cc1 [Example 251]", "AGTR1 (Homo sapiens)", 182],
  ["CCCCOC(=O)NS(=O)(=O)c1sc(-c2cccnc2OC)cc1-c1ccc(Cn2c(CC)nc3c(C)cc(C)nc32)cn1 [Example 48]", "AGTR1 (Homo sapiens)", 357],
  ["CCc1nc2c(C)cc(C)nc2n1Cc1ccc(-c2cc(N3CCc4ccccc43)ccc2-c2nn[nH]n2)cc1 [Example 96]", "AGTR1 (Homo sapiens)", 28.7],
  ["CCc1nc2c(C)cc(C)nc2n1Cc1ccc(-c2cc(-n3ncc4ccccc43)ccc2-c2nnn[nH]2)cc1 [Example 215]", "AGTR1 (Homo sapiens)", 17.6],
  ["CCCc1cn(-c2ccc(-c3nnn[nH]3)c(-c3ccc(Cn4c(CC)nc5c(C)cc(C)nc54)cc3)c2)nn1 [Example 228]", "AGTR1 (Homo sapiens)", 147],
  ["CCc1nc2c(C)cc(C)nc2n1Cc1ccc(-c2cc(-n3cnc4ccccc43)ccc2-c2nnn[nH]2)cc1 [Example 222]", "AGTR1 (Homo sapiens)", 187],
  ["CCCCOC(=O)NS(=O)(=O)c1sc(-c2ccccc2C)cc1-c1ccc(Cn2c(CC)nc3c(C)cc(C)nc32)cc1 [Example 40]", "AGTR1 (Homo sapiens)", 11.9]
]}

// next item, EC50 requested
What value of measured EC50 is listed for CCc1nc2c(C)cc(C)nc2n1Cc1ccc(-c2cc(C3CCCOC3)ccc2-c2nn[nH]n2)cc1 (stereo not shown) [Example 79] ? 499

---

# target-of-assay: AGTR1 (Homo sapiens, UniProt P30556)
# Construct: host or cells: Pathunter CHO-K1 AGTR1 β-arrestin cell line (CHO-K1)
# assay-explanation: DiscoveRx β-arrestin2 recruitment assay (enzyme complementation, Pathunter CHO-K1 AGTR1 β-arrestin cell line)
# Type: cell-based
# assay-conditions: DiscoveRx β-arrestin2 recruitment
One threshold, 0.05 µM, splits the recorded EC50 values: lower ones are yes (1), equal or higher ones are no (0).

{"columns": ["compound", "answer-label"],
 "data": [
  ["CCCc1nc(C(C)(C)O)c(C(=O)[O-])n1Cc1ccc(-c2cc(-c3ccccc3)ccc2-c2noc(=O)[nH]2)cc1.[Na+]", "yes (1)"],
  ["CCc1nc2c(C)cc(C)nc2n1Cc1ccc(-c2cc(-c3cc(C)cc(C)c3)ccc2C(=O)O)cc1", "yes (1)"],
  ["CCCCc1nc(Cl)c(C(N)=O)n1Cc1ccc(-c2cc(-c3ccccc3)ccc2-c2noc(=O)[nH]2)cc1", "no (0)"],
  ["CCOc1nc2cccc(C(=O)O)c2n1Cc1ccc(-c2cc(-c3c[nH]c4ccccc34)ccc2-c2noc(=O)[nH]2)cc1", "yes (1)"]
]}

Input CCCCC(=O)N(Cc1ccc(-c2cc(Nc3ccccc3)ccc2-c2nn[nH]n2)cc1)[C@H](C(=O)O)C(C)C ; condition: EC50 strictly below 0.05 µM. Does it hold? no (0)

Another compound to look at: CCOc1nc2cccc(C(=O)O)c2n1Cc1ccc(-c2cc(-c3cc(C)ccn3)ccc2-c2nn[nH]n2)cc1 yes (1)

Another compound to look at: CCCCC(=O)N(Cc1ccc(-c2cc(-c3cccnc3OC)ccc2-c2nn[nH]n2)cc1)[C@H](C(=O)O)C(C)C no (0)

Another compound to look at: CCCCC(=O)N(Cc1ccc(-c2cc(-c3cnn(C)c3)ccc2-c2nn[nH]n2)cc1)[C@H](C(=O)O)C(C)C no (0)

Another compound to look at: CCc1nc2c(C)cc(C)nc2n1Cc1ccc(-c2cc(-c3ccc(F)cn3)ccc2-c2nn[nH]n2)cc1 yes (1)

Another compound to look at: CCCCc1ncc(C(=O)NCC(F)F)n1Cc1ccc(-c2cc(-c3ccccc3)ccc2-c2nn[nH]n2)cc1 yes (1)

---

# target-of-assay: AGTR1 (Homo sapiens)
# Construct: host or cells: Pathunter CHO-K1 AGTR1 β-arrestin cell line (CHO-K1)
# Sequence (P30556 1-359): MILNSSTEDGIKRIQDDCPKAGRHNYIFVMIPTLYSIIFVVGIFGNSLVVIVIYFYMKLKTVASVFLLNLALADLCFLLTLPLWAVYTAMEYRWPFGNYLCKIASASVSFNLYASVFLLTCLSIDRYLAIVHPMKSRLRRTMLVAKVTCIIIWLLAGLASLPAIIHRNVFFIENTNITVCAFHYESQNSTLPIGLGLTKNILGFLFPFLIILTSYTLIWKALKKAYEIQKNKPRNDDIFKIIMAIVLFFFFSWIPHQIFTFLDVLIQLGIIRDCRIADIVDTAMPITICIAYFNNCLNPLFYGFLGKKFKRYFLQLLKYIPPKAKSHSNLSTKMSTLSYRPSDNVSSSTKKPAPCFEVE
# assay-explanation: DiscoveRx β-arrestin2 recruitment assay (enzyme complementation, Pathunter CHO-K1 AGTR1 β-arrestin cell line)
# Assay type: cell-based
# assay-conditions: DiscoveRx β-arrestin2 recruitment, maximal response
outcome-measure: DiscoveRx β-arrestin2 Ymax (%)
Numbers only here, please. The scale is %.

Guide cases for DiscoveRx β-arrestin2 Ymax (%), answers given:
{"columns": ["compound", "target-of-assay", "result-unit", "DiscoveRx β-arrestin2 Ymax (%)"],
 "data": [
  ["CCCCc1nc(Cl)c(C(=O)O)n1Cc1ccc(-c2cc(-c3ccc(C(=O)N(C)C)cc3)ccc2-c2nn[nH]n2)cc1 [Example 390]", "AGTR1 (Homo sapiens)", "%", 53.5],
  ["CCc1nc2c(C)cc(C)nc2n1Cc1ccc(-c2cc(-c3ccc(CO)cc3)ccc2C(=O)O)cc1 [Example 183]", "AGTR1 (Homo sapiens)", "%", 36.2],
  ["CCc1nc2c(C)cc(C)nc2n1Cc1ccc(-c2cc(-c3ccc(CO)cc3)ccc2-c2nnn[nH]2)cn1 [Example 180]", "AGTR1 (Homo sapiens)", "%", 40.4]
]}

What value of measured DiscoveRx β-arrestin2 Ymax (%) is listed for CCCCc1ncc(C(=O)NCCC)n1Cc1ccc(-c2cc(-c3ccccc3)ccc2-c2nn[nH]n2)cc1 [Example 372] ? 41.7

Another compound to look at: CCCc1nc(CC)c(C(=O)O)n1Cc1ccc(-c2cc(-c3ccccc3)ccc2-c2nn[nH]n2)c(C)c1 [Example 425] 54.2

Another compound to look at: CCc1nc2c(C)cc(C)nc2n1Cc1ccc(-c2cc(N3CCCC(F)(F)C3)ccc2-c2nn[nH]n2)cc1 [Example 83] 40.5

Another compound to look at: CCCCOC(=O)NS(=O)(=O)c1sc(-c2ccccc2C)cc1-c1ccc(Cn2c(CC)nc3c(C)cc(C)nc32)cc1 [Example 40] 36.4
